# Lookup of reported EC50 (nM), OVCAR 5 cells (cAMP) keyed by entry
Target: T1, human RXFP1 (human, UniProt Q9HBX9 1-757)
T1 sequence (looked up): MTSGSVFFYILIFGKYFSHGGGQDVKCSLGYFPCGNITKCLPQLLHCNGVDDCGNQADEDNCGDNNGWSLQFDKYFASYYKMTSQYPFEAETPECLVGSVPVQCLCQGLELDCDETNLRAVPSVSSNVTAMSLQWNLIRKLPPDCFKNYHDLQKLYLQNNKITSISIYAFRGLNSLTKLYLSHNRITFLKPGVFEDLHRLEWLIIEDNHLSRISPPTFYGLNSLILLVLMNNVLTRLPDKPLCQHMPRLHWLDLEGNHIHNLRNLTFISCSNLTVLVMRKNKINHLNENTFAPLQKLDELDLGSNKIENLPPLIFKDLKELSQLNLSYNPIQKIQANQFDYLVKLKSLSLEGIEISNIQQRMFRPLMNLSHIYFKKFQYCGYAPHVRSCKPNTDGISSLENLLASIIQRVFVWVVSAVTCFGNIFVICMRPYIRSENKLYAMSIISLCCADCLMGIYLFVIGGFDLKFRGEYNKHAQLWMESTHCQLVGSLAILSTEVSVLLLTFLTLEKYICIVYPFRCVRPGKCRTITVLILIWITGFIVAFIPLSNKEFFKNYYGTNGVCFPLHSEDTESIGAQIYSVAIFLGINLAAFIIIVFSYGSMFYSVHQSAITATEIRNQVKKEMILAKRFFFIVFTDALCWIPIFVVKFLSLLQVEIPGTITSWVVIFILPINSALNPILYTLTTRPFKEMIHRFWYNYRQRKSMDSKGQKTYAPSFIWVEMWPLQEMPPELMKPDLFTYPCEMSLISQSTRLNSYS
Assay: cell-based or functional assay
Numbered stars: 1 amine (or outer) side, 2 acyl side, 3 side chain; on linkers, the order of the positions; unused ones are H or OH. Square brackets hold non-standard residues; d marks the D form. Side chains are listed from the residue outwards. * marks the point of attachment. TTDS = 4-[3-[2-[2-(3-aminopropoxy)ethoxy]ethoxy]propylamino]-4-oxo-butanoyl; γGlu = O=C(O)[C@H](CCC(=O)[*:2])N[*:1]; Palmitoyl = CCCCCCCCCCCCCCCC(=O)*; Myristoyl = CCCCCCCCCCCCCC(=O)*; αMeK = C[C@](N)(CCCCN)C(=O)O; Aib = CC(C)(N)C(=O)O
Give your result in nM as a bare value.

Ask: Given the entry LEGREKVRAKIXXEGKSTFSKRAK (Ac-L-E-G-R-E-K-V-R-A-K(Ac)-I-Aib-Aib-E-G-K(PEG2DGA-PEG2DGA-PEG2DGA-gE-gE-gE-Palm)-S-T-F-S-Mly-R-A-K(Ac)-NH2) [Relaxin peptide analogue of SEQ ID NO: 22] , report its measured EC50 (nM), OVCAR 5 cells (cAMP).
Result: 1

Ask: Given the entry Ac-LEGREKVRAK(Ac)I[Aib][Aib]EGK([TTDS-TTDS-TTDS-γGlu-γGlu-γGlu-Palmitoyl])STFS[Aib]RAK(Ac)-NH2 [Relaxin peptide analogue of SEQ ID NO: 2] , report its measured EC50 (nM), OVCAR 5 cells (cAMP).
Result: 2.4

Ask: Given the entry Ac-LEGRERVR[Aib]K(Ac)I[Aib][Aib]EGK([TTDS-TTDS-TTDS-γGlu-γGlu-γGlu-Palmitoyl])STWS[Aib]RRK(Ac)-NH2 [Relaxin peptide analogue of SEQ ID NO: 85] , report its measured EC50 (nM), OVCAR 5 cells (cAMP).
Result: 0.3

Ask: Given the entry Ac-LEGRELVRAK(Ac)I[Aib][Aib]EGK([TTDS-TTDS-TTDS-γGlu-γGlu-γGlu-Palmitoyl])STWS[Aib]RRK(Ac)-NH2 [Relaxin peptide analogue of SEQ ID NO: 37] , report its measured EC50 (nM), OVCAR 5 cells (cAMP).
Result: 5.6

Ask: Given the entry Ac-LEGREKVRAK(Ac)I[Aib][Aib]EGK([TTDS-TTDS-TTDS-γGlu-γGlu-γGlu-Palmitoyl])STF[Aib]RRAK(Ac)-NH2 [Relaxin peptide analogue of SEQ ID NO: 72] , report its measured EC50 (nM), OVCAR 5 cells (cAMP).
Result: 0.56

---
Ask: Given the entry Ac-LEGREKVRAK(Ac)I[Aib][Aib]EGK([TTDS-TTDS-TTDS-γGlu-γGlu-γGlu-Myristoyl])STFS[αMeK]RAK(Ac)-NH2 [Relaxin peptide analogue of SEQ ID NO: 95] , report its measured EC50 (nM), OVCAR 5 cells (cAMP).
Result: 1.8

Ask: Given the entry Ac-LEGREKVRAK(Ac)I[Aib][Aib]EGK([TTDS-TTDS-TTDS-γGlu-γGlu-γGlu-Palmitoyl])STFSKRAK(Ac)-NH2 [Relaxin peptide analogue of SEQ ID NO: 13] , report its measured EC50 (nM), OVCAR 5 cells (cAMP).
Result: 2.12

Ask: Given the entry Ac-LEGREKVRAK(Ac)I[Aib][Aib]EGK([TTDS-TTDS-TTDS-γGlu-γGlu-γGlu-Palmitoyl])STF[dS]KRAK(Ac)-NH2 [Relaxin peptide analogue of SEQ ID NO: 14] , report its measured EC50 (nM), OVCAR 5 cells (cAMP).
Result: 3.2

Ask: Given the entry Ac-LEGREKVRAK(Ac)I[Aib][Aib]EGK([TTDS-TTDS-TTDS-γGlu-γGlu-γGlu-Palmitoyl])STFVRRAK(Ac)-NH2 [Relaxin peptide analogue of SEQ ID NO: 94] , report its measured EC50 (nM), OVCAR 5 cells (cAMP).
Result: 1.74

FYI, the data here is from patent US20240400638A1.
